Origin of measurements: PubChem BioAssay (NCATS)

RUN DESCRIPTION: Cellular viability qHTS for adrenocortical cancer (ACC) cell line NCI-H295R (AID 1963990); note: nearly all actives have a fitted effect of over 60% in size
CONDITION DETAILS: CellTiter-Glo ATP luminescence, 48 h; series mostly up to 46.1 µM
Results filed as inconclusive are left out. Calls of active or inactive are those of the source. Calls come from the whole dose curve; as a rule, active = well fitted cell-killing curve with a large enough effect; inconclusive = small, poorly fitted or top-dose-only effect; inactive = flat fitted curve, though single readings scatter.
Bench note: report the call from active, inactive

Use the examples below as a reference point.
- COMPOUND: "Cc1ccc(C(C)C)c(O)c1"
  CLASS ASSIGNMENT: "inactive"
- COMPOUND: "Cc1ccc(NS(=O)(=O)c2ccc3c(c2)C2C=CCC2C(c2ccc(C(=O)O)cc2)N3)cc1C (centres undefined)"
  CLASS ASSIGNMENT: "inactive"
- COMPOUND: "O=C(O)c1ccccc1S"
  CLASS ASSIGNMENT: "inactive"
- COMPOUND: "Cc1cc2c(cc1C1(c3ccc(C(=O)O)cn3)CC1)C(C)(C)CCC2(C)C"
  CLASS ASSIGNMENT: "inactive"

What call does the record list for C[C@@H](CN1CC(=O)NC(=O)C1)N1CC(=O)NC(=O)C1 ? inactive

What is the recorded call for this compound in the test? CCCCN1C[C@H](O)[C@@H](O)[C@H](O)[C@H]1CO inactive

Identify the outcome logged in this assay for the compound shown: CC(C)(C)CC(C)(C)c1ccc(O)c(Cc2ccc(Cl)cc2Cl)c1 active

Just curious, what result did O=C(CCCl)NCc1ccccc1 get here? inactive

Hi, sorry to bother you, what did the test record for O=C(CCCCC(=O)Nc1c(I)cc(I)c(C(=O)O)c1I)Nc1c(I)cc(I)c(C(=O)O)c1I ? inactive

Please state the recorded outcome for this compound: Cc1ncc(COP(=O)(O)O)c(C=O)c1O inactive

// param item: COc1cc(N2CCN(C(C)=O)CC2)ccc1Nc1ncc(Cl)c(Nc2ccc(N3CCN(C(C)=O)CC3)cc2OC)n1 ; yields the recorded call active

----------
RUN DESCRIPTION: Quantitative highthroughput screen to assess conditional lethalithy of P12 Ichikawa cells grown in RPMI1640 with untreated serum (RPMI+s) (AID 1963881); note: nearly all actives have a fitted effect of over 35% in size
CONDITION DETAILS: ATP luminescence, 48 h; viability; series mostly up to 45.8 µM
Procedure: Assay Provider: Jason Cantor Ph.D. Department of Biochemistry University of Wisconsin-Madison, Madison, WI, USA Chemical screening studies have identified drug sensitivities across hundreds of cancer cell lines but most putative therapeutics fail to translate. […] Sets of conditional anticancer compounds spanned phases of clinical development and included non-oncology drugs were assessed. […] 6; Detection; Luminescence, Viewlux PerkinElmer. […]
Inconclusive results are not listed. Activity calls are given as the source filed them. Calls follow the shape of the dose curve; as a rule, active = well fitted cell-killing curve with a large enough effect; inconclusive = small, poorly fitted or top-dose-only effect; inactive = flat fitted curve, though single readings scatter.
Your answer must be one of the following: active, inactive

- COMPOUND: "CC(C)[C@H](CO)Nc1nc(Nc2cccc(Cl)c2)c2ncn(C(C)C)c2n1"
  CLASS ASSIGNMENT: "active"
- COMPOUND: "CNC1CCC(N(Cc2cccc(-c3ccncc3)c2)C(=O)c2sc3ccccc3c2Cl)CC1 (stereo unspecified)"
  CLASS ASSIGNMENT: "active"
- COMPOUND: "Cc1cccc(N(C)C(=S)Oc2ccc3ccccc3c2)c1"
  CLASS ASSIGNMENT: "inactive"

Could you check what this test reported for Clc1ccc(-c2nc3sccn3c2C=NOCc2ccc(Cl)c(Cl)c2)cc1 ? inactive

Can you look up the reported call for Cc1cnc(C(=O)O)c[n+]1[O-] for me? inactive

What classification did Nc1nc(=S)c2[nH]cnc2[nH]1 end up with in this test? active
